# System: NCI-H23
# assay.protocol: NCI tumour cell line growth inhibition, 48 h
The source made the active and inactive calls. Cut-off read from the data, not from the text of the source: active = GI50 up to about 1.1 µM and inactive = higher.
Kindly supply the reported GI50 values for the records listed here.

In the examples that follow, each entry is paired with its recorded GI50.
- molecule: "CC1=[N+](C)CCN1C"
  GI50: "> 100 µM (inactive)"
- molecule: "O=C(NCc1ccncc1)C1COc2cc(-c3cc(=O)c4ccccc4o3)ccc2O1 (stereo unspecified)"
  GI50: "> 100 µM (inactive)"
- molecule: "NC(=O)c1ncn(C2OC(CO)C(O)C2O)c1NC=O (stereo unspecified)"
  GI50: "> 100 µM (inactive)"

List reported GI50 for each of these molecules:
1. CC(C)(C)OC(=O)N(O)[C@@H]1C=C[C@H](n2cnc3c(N)ncnc32)C1
2. O=C1C=CC2(O[C@@H](Cc3ccccc3)[C@H](Cc3ccccc3)O2)C(SC(=O)c2ccccc2)C1 (stereo partly specified)
3. CCOC(=O)CN1C(=O)c2cc([N+](=O)[O-])cc3cc([N+](=O)[O-])cc(c23)C1=O
4. Cc1nc(C)c(N2CCN(S(N)(=O)=O)CC2)c(O)n1
5. COC1=C(OC)C23CCc4ccc(OC)c(O)c4C2(CCN3)CC1=O (stereo unspecified)
6. O=C(O)C(F)(OC(F)(F)C(F)(F)C(F)(F)F)C(F)(F)F (stereo unspecified)
7. O=C(CNC(c1ccccc1)(c1ccccc1)c1ccccc1)NC1CCCCC1NC(=O)CNC(c1ccccc1)(c1ccccc1)c1ccccc1 (stereo unspecified)
8. COC(=O)C1C/C(=C/N(C)C)C(=S)N1 (stereo unspecified)

Result:
1: > 100 µM (inactive); 2: 1.69 µM (inactive); 3: 99.3 µM (inactive); 4: > 100 µM (inactive); 5: > 100 µM (inactive); 6: > 100 µM (inactive); 7: > 100 µM (inactive); 8: > 100 µM (inactive)

All values here come from ChEMBL document CHEMBL1201862.
